Test: Liver-to-plasma partitioning (Kp)
Format: in vivo, Sprague Dawley rats
Condition details: male, Sprague Dawley, rat, oral, 17 mg/kg/day, M, 5 days, mean ± SD n=4, likely influenced by high toxicity and stress, read-out: Liver Kp (liver-to-plasma ratio)

Molecule: O=C(O)C(F)(OC(F)(F)C(F)(OC(F)(F)C(F)(OC(F)(F)C(F)(F)C(F)(F)F)C(F)(F)F)C(F)(F)F)C(F)(F)F (stereo not shown) [HFPO-TeA]
Kp at 120 h: 1.32

---

Test: Plasma HFPO-TeA dosimetry
Assay type: in vivo, Sprague Dawley rats
Condition details: male, Sprague Dawley, rat, plasma, oral, 2.3 mg/kg/day, M, 5 days of exposure, mean ± SD n=4; read-out: 5D Plasma Conc.

Compound: O=C(O)C(F)(OC(F)(F)C(F)(OC(F)(F)C(F)(OC(F)(F)C(F)(F)C(F)(F)F)C(F)(F)F)C(F)(F)F)C(F)(F)F (stereo not shown)
Result unit: µM
concentration at 5 days: 6.64

---

Listing: fraction unbound at 4 h, 10 µM of selected molecules
Test: Ultracentrifugation plasma protein binding assay, human plasma
Assay type: in vitro ADME
Condition details: both sexes, human, pooled human plasma, 10000 nM, replicates A-C, read-out: Fraction Unbound in plasma (fup)
Method: Information on the chemicals and materials used in the plasma protein binding work can be found in Supplementary Text S10 and Table S3. Human and rodent plasma were evaluated for plasma protein binding using ultracentrifugation, as previously described. […] Fraction unbound (fu) in plasma (fup) and percent stability calculations are detailed in Supplementary Text S10. […] Renal clearance was calculated using the glomerular filtration rate (a species-dependent constant) and the fub. […]
Quantity: fraction unbound at 4 h, 10 µM

Molecule: O=C(O)C(F)(OC(F)(F)C(F)(OC(F)(F)C(F)(F)C(F)(F)F)C(F)(F)F)C(F)(F)F (stereo not shown) [HFPO-TA]
Val: 0.0013
--
Molecule: O=C(O)C(F)(OC(F)(F)C(F)(OC(F)(F)C(F)(OC(F)(F)C(F)(F)C(F)(F)F)C(F)(F)F)C(F)(F)F)C(F)(F)F (stereo not shown) [HFPO-TeA]
Val: 0.0121
--
Molecule: O=C(O)C(F)(OC(F)(F)C(F)(F)C(F)(F)F)C(F)(F)F (stereo not shown) [HFPO-DA, perfluoro-2-methyl-3-oxahexanoic acid]
Val: 0.0099
--
Molecule: C[C@]12CC[C@H]3[C@@H](CCC4=CC(=O)CC[C@@]43C)[C@@H]1CC[C@@H]2O [Testosterone]
Val: 0.0537

---

Test: Liver HFPO-TeA dosimetry
Assay type: in vivo, Sprague Dawley rats
Condition details: male, Sprague Dawley, rat, liver, oral, 6.3 mg/kg/day, M, 5 days, wet weight, individual rats; read-out: Liver Conc.
Quantity: concentration at 5 days (ng/g)

Molecule: O=C(O)C(F)(OC(F)(F)C(F)(OC(F)(F)C(F)(OC(F)(F)C(F)(F)C(F)(F)F)C(F)(F)F)C(F)(F)F)C(F)(F)F (stereo not shown)
Quantity: concentration at 5 days
Val: 61600

---

Measured fraction unbound at 4 h, 10 µM, listed per entry.
Test: Ultracentrifugation plasma protein binding assay, human plasma
Type: in vitro ADME
Condition details: both sexes, human, plasma, 10 µM, ultracentrifugation, read-out: Experimental fup (average fraction unbound in plasma)

Molecule: O=C(O)C(F)(OC(F)(F)C(F)(OC(F)(F)C(F)(OC(F)(F)C(F)(F)C(F)(F)F)C(F)(F)F)C(F)(F)F)C(F)(F)F (stereo not shown)
fraction unbound at 4 h, 10 µM: 0.0124
--
Molecule: C[C@]12CC[C@H]3[C@@H](CCC4=CC(=O)CC[C@@]43C)[C@@H]1CC[C@@H]2O
fraction unbound at 4 h, 10 µM: 0.048
--
Molecule: O=C(O)C(F)(OC(F)(F)C(F)(F)C(F)(F)F)C(F)(F)F (stereo not shown)
fraction unbound at 4 h, 10 µM: 0.0098
--
Molecule: O=C(O)C(F)(OC(F)(F)C(F)(OC(F)(F)C(F)(F)C(F)(F)F)C(F)(F)F)C(F)(F)F (stereo not shown)
fraction unbound at 4 h, 10 µM: 0.0013

---

Test: Plasma HFPO-TeA dosimetry
Format: in vivo, Sprague Dawley rats
Condition details: female, Sprague Dawley, rat, plasma, oral, 0.9 mg/kg/day, F, 5 days of exposure, mean ± SD n=4; read-out: 5D Plasma Conc.
Description: Whole blood was collected from the retro-orbital plexus under isoflurane anesthesia 2 h following the first dose and by cardiac puncture 24 h after the last dosage. […] Targeted analysis of HFPO-TeA was conducted on a Sciex X500R QTOF liquid chromatography/mass spectrometer system operated in high-resolution MRM negative ion ESI mode. […] Additional details of the instrument parameters are provided in Table S8 and monitored transitions in Table S9. Matrix blanks were analyzed with each sample set. […]
Quantity: concentration at 5 days (µM)

Compound: O=C(O)C(F)(OC(F)(F)C(F)(OC(F)(F)C(F)(OC(F)(F)C(F)(F)C(F)(F)F)C(F)(F)F)C(F)(F)F)C(F)(F)F (stereo not shown) [HFPO-TeA]
Result unit: µM
Val: 3.62

---

Test: Hepatocyte metabolic stability (clearance) assay, human hepatocytes
Condition details: human, hepatocytes, Clint, human hepatocytes, 1000 nM, not background-subtracted

Compound: CCOc1ccc(NC(C)=O)cc1 [Phenactin, phenacetin, reference compound]
hepatocyte CLint at 1 µM: 12.1 µL/min/1e6 cells

---

Test: Plasma HFPO-TeA dosimetry
Assay type: in vivo, Sprague Dawley rats
Condition details: male, Sprague Dawley, rat, plasma, oral, 2.3 mg/kg/day, M, 2 h after first dose, mean ± SD n=4; read-out: 2 h Plasma Conc.

Molecule: O=C(O)C(F)(OC(F)(F)C(F)(OC(F)(F)C(F)(OC(F)(F)C(F)(F)C(F)(F)F)C(F)(F)F)C(F)(F)F)C(F)(F)F (stereo not shown) [HFPO-TeA]
Result unit: µM
concentration at 2 h: 13.1

---

Test: Hepatocyte metabolic stability (clearance) assay, human hepatocytes
Condition details: human, hepatocytes, Background-Subtracted Clint, human hepatocytes, 1000 nM

Compound: CCOc1ccc(NC(C)=O)cc1 [Phenactin, phenacetin, reference compound]
hepatocyte CLint at 1 µM (µL/min/1e6 cells): 8.8

---

Test: Liver-to-plasma partitioning (Kp)
Type: in vivo, Sprague Dawley rats
Condition details: male, Sprague Dawley, rat, oral, 0.3 mg/kg/day, M, 5 days, mean ± SD n=4, read-out: Liver Kp (liver-to-plasma ratio)

Compound: O=C(O)C(F)(OC(F)(F)C(F)(OC(F)(F)C(F)(OC(F)(F)C(F)(F)C(F)(F)F)C(F)(F)F)C(F)(F)F)C(F)(F)F (stereo not shown)
Kp at 120 h: 7.28

---

Test: Plasma HFPO-TeA dosimetry
Format: in vivo, Sprague Dawley rats
Condition details: male, Sprague Dawley, rat, plasma, oral, 6.3 mg/kg/day, M, 5 days of exposure, mean ± SD n=4; read-out: 5D Plasma Conc.

Compound: O=C(O)C(F)(OC(F)(F)C(F)(OC(F)(F)C(F)(OC(F)(F)C(F)(F)C(F)(F)F)C(F)(F)F)C(F)(F)F)C(F)(F)F (stereo not shown)
concentration at 5 days (µM): 24.5

---

Test: Ultracentrifugation plasma protein binding assay, rat plasma
Assay type: in vitro ADME
Condition details: both sexes, Sprague Dawley, rat, rat plasma, 10000 nM, Rep C; read-out: Fraction Unbound in plasma (fup), Rep C
Quantity: fraction unbound at 4 h, 10 µM

Compound: O=C(O)C(F)(OC(F)(F)C(F)(OC(F)(F)C(F)(F)C(F)(F)F)C(F)(F)F)C(F)(F)F (stereo not shown)
Val: 0.00223
//
Compound: O=C(O)C(F)(OC(F)(F)C(F)(OC(F)(F)C(F)(OC(F)(F)C(F)(F)C(F)(F)F)C(F)(F)F)C(F)(F)F)C(F)(F)F (stereo not shown)
Val: 0.00748
//
Compound: C[C@]12CC[C@H]3[C@@H](CCC4=CC(=O)CC[C@@]43C)[C@@H]1CC[C@@H]2O
Val: 0.0507
//
Compound: O=C(O)C(F)(OC(F)(F)C(F)(F)C(F)(F)F)C(F)(F)F (stereo not shown)
Val: 0.031

---

Test: Hepatocyte metabolic stability (clearance) assay, human hepatocytes
Condition details: human, hepatocytes, HT-Background Half Life, heat treated human hepatocytes, 1000 nM
half-life at 1 µM values by entry

Compound: CC(C)NCC(O)COc1cccc2ccccc12 (centres unmarked) [Propranolol, reference compound]
half-life at 1 µM, h: 12.3
--
Compound: CCOc1ccc(NC(C)=O)cc1 [Phenactin, phenacetin, reference compound]
half-life at 1 µM, h: 7.1

---

Test: In vitro-in vivo extrapolation (IVIVE) to estimate Css, human
Condition details: blood, fub=fup/(1-hemocrit ref value), hematocrit 0.45
Quantity: fraction unbound

Compound: O=C(O)C(F)(OC(F)(F)C(F)(OC(F)(F)C(F)(F)C(F)(F)F)C(F)(F)F)C(F)(F)F (stereo not drawn)
Quantity: fraction unbound
Val: 0.0024
//
Compound: O=C(O)C(F)(OC(F)(F)C(F)(F)C(F)(F)F)C(F)(F)F (stereo not drawn)
Quantity: fraction unbound
Val: 0.0178
//
Compound: O=C(O)C(F)(OC(F)(F)C(F)(OC(F)(F)C(F)(OC(F)(F)C(F)(F)C(F)(F)F)C(F)(F)F)C(F)(F)F)C(F)(F)F (stereo not drawn)
Quantity: fraction unbound
Val: 0.0226
